pKi: −log10 of the molar value.
Below are pKi values measured for UniProt:P31645.
Sequence (P31645 whole entry): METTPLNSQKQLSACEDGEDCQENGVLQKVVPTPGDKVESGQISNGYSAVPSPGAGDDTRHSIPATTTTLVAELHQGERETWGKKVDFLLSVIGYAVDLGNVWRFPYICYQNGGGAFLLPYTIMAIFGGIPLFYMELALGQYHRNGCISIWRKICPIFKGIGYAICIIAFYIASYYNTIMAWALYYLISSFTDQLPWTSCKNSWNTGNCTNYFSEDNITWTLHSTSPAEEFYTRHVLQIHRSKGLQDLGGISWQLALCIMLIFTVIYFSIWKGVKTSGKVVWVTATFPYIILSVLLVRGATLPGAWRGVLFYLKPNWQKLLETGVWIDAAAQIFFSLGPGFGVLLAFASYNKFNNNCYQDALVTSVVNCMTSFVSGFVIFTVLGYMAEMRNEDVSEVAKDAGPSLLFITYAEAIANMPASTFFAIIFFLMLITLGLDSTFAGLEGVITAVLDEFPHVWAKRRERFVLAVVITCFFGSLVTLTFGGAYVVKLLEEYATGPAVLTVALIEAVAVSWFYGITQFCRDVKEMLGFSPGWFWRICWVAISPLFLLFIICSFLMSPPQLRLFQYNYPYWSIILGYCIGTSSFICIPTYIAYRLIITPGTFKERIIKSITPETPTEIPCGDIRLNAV
EXPERIMENTAL READOUT: pKi

> print(dat)
                                   compound  bound.operator  obs.value
1  COc1cccc(F)c1OC(c1cccnc1)[C@H]1CNCCO1 (mixture of isomers)               =       6.14
2  CC(C)Cc1ccccc1O[C@@H](c1ccccc1)[C@@H]1CNCCO1               =       5.80
3   Fc1ccccc1O[C@@H](c1ccccc1)[C@@H]1CNCCO1               =       5.31
4  Fc1ccc(OC(c2ccccn2)[C@H]2CNCCO2)c(F)c1 (stereo partly drawn)               =       6.02
5  CCCc1ccccc1O[C@@H](c1ccccc1)[C@@H]1CNCCO1               =       6.33
6  CCOc1cccc(F)c1O[C@@H](c1ccccn1)[C@@H]1CNCCO1               =       5.13
7  CS(=O)(=O)c1ccccc1O[C@@H](c1ccccc1)[C@@H]1CNCCO1               ≤       5.00
8  c1ccc(Cc2ccccc2O[C@@H](c2ccccc2)[C@@H]2CNCCO2)cc1               =       6.01
9  COc1cccc(OC)c1OC(c1ccccc1)[C@@H]1CNCCO1 (stereo partly drawn)               ≤       5.00

Cited source: patent US7659394B2
